Measured pest or weed control at 250 g/ha, listed per entry.
# System: barnyardgrass (Echinochloa crus-galli)
# PROTOCOL SUMMARY: Test B flooded paddy test, barnyardgrass
# SETUP CONDITIONS: 336 h, read-out: Plant response rating, Barnyardgrass
Write the quantity with the unit trailing the number.

The cases that follow already have their pest or weed control at 250 g/ha on record.
Input: Reported pest or weed control at 250 g/ha, molecule Cc1c(NS(=O)(=O)C(F)(F)F)cc(C(=O)N2CCOCC2)c(C)c1F : ____
Output: 0%

Input: Reported pest or weed control at 250 g/ha, molecule Cc1cc(C)c(N2CCC3(CCCCC3)C2=O)cc1NS(=O)(=O)C(F)(F)F : ____
Output: 0%

Input: Reported pest or weed control at 250 g/ha, molecule Cc1cc(Cl)c(NS(=O)(=O)C(F)(F)F)cc1C(=O)N1CCCCC1 : ____
Output: 0%

Input: Reported pest or weed control at 250 g/ha, molecule Cc1cc(C)c(C(=O)N2CCC(F)(F)CC2)cc1NS(=O)(=O)C(F)(F)F : ____
Output: 25%

Input: Reported pest or weed control at 250 g/ha, molecule Cc1cc(C)c(C2=NOC3(CCCC3)C2)cc1NS(=O)(=O)C(F)(F)F : ____
Output: 75%

Further cases:
Input: Reported pest or weed control at 250 g/ha, molecule Cc1cc(C)c(C2=NOC3CCOCC23)cc1NS(=O)(=O)C(F)(F)F (stereo not shown) : ____
Output: 0%

Input: Reported pest or weed control at 250 g/ha, molecule Cc1cc(C)c(C2=NOC3COCCC23)cc1NS(=O)(=O)C(F)(F)F (stereo not shown) : ____
Output: 40%

###

# System: goosegrass (Eleusine indica)
# PROTOCOL SUMMARY: Test A1 preemergence, goosegrass
# Assay type: in vivo
# SETUP CONDITIONS: 125 g ai/ha, 0 to 100 scale, 0 no effect, 100 complete control
# label = label 1 if Plant response rating, Goosegrass >= 90 else label 0

Input: Check if Plant response rating, Goosegrass >= 90 (inclusive). Item: CCC1ON=C(c2cc(N(COC(=O)C(C)(C)C)S(=O)(=O)C(F)(F)F)c(C)cc2C)C1CC (stereo not shown) [Compound 347]
Output: label 0

Further cases:
Input: Check if Plant response rating, Goosegrass >= 90 (inclusive). Item: Cc1cc(C2CC2)c(NS(=O)(=O)C(F)(F)F)cc1C1=NOC2(CCCC2)C1
Output: label 0

Input: Check if Plant response rating, Goosegrass >= 90 (inclusive). Item: CCOC(=O)N(c1cc(C(=O)N2CCC(C)CC2)c(C)cc1C)S(=O)(=O)C(F)(F)F
Output: label 1

Input: Check if Plant response rating, Goosegrass >= 90 (inclusive). Item: Cc1cc(C(F)(F)F)c(C2=NOC3CCCC23)cc1NS(=O)(=O)C(F)(F)F (stereo not shown)
Output: label 1

Input: Check if Plant response rating, Goosegrass >= 90 (inclusive). Item: COc1cc(C)c(NS(=O)(=O)C(F)(F)F)cc1C1=NOC2CCCC12 (stereo not shown)
Output: label 0

Input: Check if Plant response rating, Goosegrass >= 90 (inclusive). Item: Cc1c(NS(=O)(=O)C(F)(F)F)cc(C(=O)N2CC(C)OC(C)C2)c(C)c1C (stereo not shown)
Output: label 0

Input: Check if Plant response rating, Goosegrass >= 90 (inclusive). Item: CCOC1CC(c2cc(NS(=O)(=O)C(F)(F)F)c(C)cc2C)=NO1 (stereo not shown)
Output: label 1

###

# Test system: ducksalad (Heteranthera limosa)
# PROTOCOL SUMMARY: Test B1 flooded paddy test, ducksalad
# Type: in vivo
# SETUP CONDITIONS: 250 g ai/ha, Flood, applied to paddy water, 2-leaf stage, visually evaluated after 10 to 14 days
# Text: A dash (-) response means no test result.
READOUT TYPE: Plant response rating, Ducksalad (0 to 100 scale, 0 is no effect, 100 is complete control)
Provide a numeric answer; units are not to be included.

Input: Reported Plant response rating, Ducksalad (0 to 100 scale, 0 is no effect, 100 is complete control), compound COc1cnn(-c2cc(NS(=O)(=O)C(F)(F)F)c(C)cc2C)c(=O)c1OC : ____
Output: 65

Input: Reported Plant response rating, Ducksalad (0 to 100 scale, 0 is no effect, 100 is complete control), compound Cc1c(NS(=O)(=O)C(F)(F)F)cc(C2=NOC3(CCCC3)C2)c(C)c1C : ____
Output: 70

Further cases:
Input: Reported Plant response rating, Ducksalad (0 to 100 scale, 0 is no effect, 100 is complete control), compound COC1CCC2(CC1)CCN(c1cc(NS(=O)(=O)C(F)(F)F)c(C)cc1C)C2=O (centres unmarked) : ____
Output: 95

###

Measured Plant response rating, Kochia, listed per entry.
# Tested on: kochia (Bassia scoparia)
# PROTOCOL SUMMARY: Test A1 preemergence, kochia
# Format: in vivo
# SETUP CONDITIONS: 31 g ai/ha, 0 to 100 scale (0 no effect, 100 complete control)
Provide a numeric answer; units are not to be included.

The cases that follow already have their Plant response rating, Kochia on record.
Input: Reported Plant response rating, Kochia, compound CCc1cc(C)c(C2=NOC3(CCCC3)C2)cc1NS(=O)(=O)C(F)(F)F : ____
Output: 0

Input: Reported Plant response rating, Kochia, compound Cc1c(NS(=O)(=O)C(F)(F)F)cc(C(=O)N2CC(C)OC(C)C2)c(C)c1C (stereo not shown) [Compound 327] : ____
Output: 0

Input: Reported Plant response rating, Kochia, compound Cc1c(C(=O)N2CCCCC2)cc(NS(=O)(=O)C(F)(F)F)c(Cl)c1F : ____
Output: 20

Further cases:
Input: Reported Plant response rating, Kochia, compound COc1cnn(-c2cc(NS(=O)(=O)C(F)(F)F)c(C)cc2C)c(=O)c1OC : ____
Output: 0

###

# System: soybean (Glycine max)
# PROTOCOL SUMMARY: Test A1 postemergence, soybean
# Type: in vivo
# SETUP CONDITIONS: Postemergence, 125 g ai/ha; 0 to 100 scale (0 no effect, 100 complete control); 10 days
Measured Plant response rating, Soybean, listed per entry.
Provide a numeric answer; units are not to be included.

Input: Reported Plant response rating, Soybean, compound Cc1c(NS(=O)(=O)C(F)(F)F)cc(C2=NOC3(CCCC3)C2)c(C)c1C [Compound 380] : ____
Output: 60

Further cases:
Input: Reported Plant response rating, Soybean, compound Cc1c(C2=NOC3(CCCC3)C2)cc(N(COC(=O)C(C)(C)C)S(=O)(=O)C(F)(F)F)c(C)c1C [Compound 382] : ____
Output: 50

Input: Reported Plant response rating, Soybean, compound Cc1cc(C)c(N(S(=O)(=O)C(F)(F)F)S(=O)(=O)C(F)(F)F)cc1N1CCC2(CCC(C(F)(F)F)CC2)C1=O (centres unmarked) [Compound 399] : ____
Output: 100

Input: Reported Plant response rating, Soybean, compound COC1CCC2(CC1)CCN(c1cc(NS(=O)(=O)C(F)(F)F)c(C)cc1C)C2=O (centres unmarked) [Compound 398] : ____
Output: 60

Input: Reported Plant response rating, Soybean, compound Cc1cc(C)c(N(COC(=O)C(C)(C)C)S(=O)(=O)C(F)(F)F)cc1N1CCC2(CCC(C)CC2)C1=O (centres unmarked) [Compound 401] : ____
Output: 70

###

# System: horseweed (Erigeron canadensis)
# PROTOCOL SUMMARY: Test A1 postemergence, horseweed
# Format: in vivo
# SETUP CONDITIONS: Postemergence, 31 g ai/ha; 0 to 100 scale (0 no effect, 100 complete control); 10 days
# Text: […]
READOUT TYPE: Plant response rating, Horseweed
Provide a numeric answer; units are not to be included.

Input: Reported Plant response rating, Horseweed, compound Cc1cc(Br)c(C2=NOC3CCCC23)cc1NS(=O)(=O)C(F)(F)F (stereo not shown) : ____
Output: 10

Input: Reported Plant response rating, Horseweed, compound Cc1cc(C(F)(F)F)c(C2=NOC3CCCC23)cc1NS(=O)(=O)C(F)(F)F (stereo not shown) : ____
Output: 0

Input: Reported Plant response rating, Horseweed, compound Cc1c(NS(=O)(=O)C(F)(F)F)cc(C2=NOC3CCCC23)c(C)c1C (stereo not shown) : ____
Output: 40

Further cases:
Input: Reported Plant response rating, Horseweed, compound Cc1cc(C)c(N(C(=O)OCC(C)C)S(=O)(=O)C(F)(F)F)cc1C1=NOC2CCCC12 (stereo not shown) : ____
Output: 0

Input: Reported Plant response rating, Horseweed, compound CCOC(=O)N(c1cc(C(=O)N2CCOCC2)c(C)c(C)c1C)S(=O)(=O)C(F)(F)F : ____
Output: 90

Input: Reported Plant response rating, Horseweed, compound Cc1c(NS(=O)(=O)C(F)(F)F)cc(C(=O)N2CCC(F)CC2)c(C)c1C : ____
Output: 60

Input: Reported Plant response rating, Horseweed, compound Cc1c(C(=O)N2CCC(Cl)CC2)cc(N(COC(=O)C(C)(C)C)S(=O)(=O)C(F)(F)F)c(C)c1C : ____
Output: 50
